assay: ATG_BRE_CIS: Attagene CIS-FACTORIAL HepG2 Assay for human Bone Morphogenetic Protein (BMP) Response Element (BRE) (AID 2282933); details: HepG2 BMP response element reporter, Attagene transcription factor profiling; actives raise or lower the signal
Calls of active or inactive are those of the source. How the source made its calls: active means hit-call score of the fitted dose curve at least 0.9, where 1 is the maximum; inactive means score below 0.9.
Outcomes: class 1 = active, class 0 = inactive

compound: CCCCCCCCCCCC#N
labelClass: class 0

compound: c1ccc2c(c1)CCCC2
labelClass: class 0

compound: CCOC(=O)NC(=S)Nc1ccccc1NC(=S)NC(=O)OCC
labelClass: class 0

compound: CCC(C)c1cc(C(C)(C)C)cc(-n2nc3ccccc3n2)c1O (centres undefined)
labelClass: class 0

compound: [Cl-].[Cl-].[Cl-].[Yb+3]
labelClass: class 0

compound: O=C(O)COc1ccccc1
labelClass: class 0

compound: CC[N+](=O)[O-]
labelClass: class 0

compound: O=C1C(Cl)=C(Cl)C(=O)C(Cl)=C1Cl
labelClass: class 0

compound: [Cl][Sb]([Cl])[Cl]
labelClass: class 0

compound: C[C@]12CCC(=O)C(O)=C1CC[C@@H]1[C@@H]2CC[C@]2(C)C(=O)CC[C@@H]12
labelClass: class 0

compound: O=S(=O)(O)OOS(=O)(=O)O
labelClass: class 0

compound: CC(C)[C@@H](C(=O)O[C@@H](C#N)c1cccc(Oc2ccccc2)c1)c1ccc(Cl)cc1
labelClass: class 0

compound: CCC(C)c1cc([N+](=O)[O-])cc([N+](=O)[O-])c1OC(=O)C=C(C)C (centres undefined)
labelClass: class 1

compound: CC(C)C#N
labelClass: class 0

compound: Nc1ccc(Cl)c(Cl)c1
labelClass: class 0

compound: O=c1c2ccccc2c(=O)c2c1cc(Cl)c1[nH]c3c([nH]c12)c(Cl)cc1c(=O)c2ccccc2c(=O)c13
labelClass: class 1

compound: CCOP(O)OCC
labelClass: class 0

compound: CC1CCCC1.[C-]#[O+].[C-]#[O+].[C-]#[O+].[Mn]
labelClass: class 0

compound: CC(C)CCCCCCCOP(=O)(Oc1ccccc1)Oc1ccccc1
labelClass: class 0

compound: O=C(O)c1cc[c]([Hg][Cl])cc1
labelClass: class 0

compound: CC1(C)CC(=O)CC(C)(C)N1[O]
labelClass: class 0

compound: C=CC(=O)OCC(CC)CCCC (centres undefined)
labelClass: class 0

compound: O=C1Nc2ccc(Cl)cc2C(c2ccccc2)=NC1O (centres undefined)
labelClass: class 0

compound: CCC(Br)(CC)C(=O)NC(N)=O
labelClass: class 0

compound: O=[N+]([O-])O.O=[N+]([O-])O.[Cd]
labelClass: class 0

compound: CC(C)CCCCCCCOC(=O)c1ccccc1C(=O)OCCCCCCCC(C)C
labelClass: class 0

compound: COCC(=O)N(c1c(C)cccc1C)N1CCOC1=O
labelClass: class 0

compound: O=C(O)CCl
labelClass: class 0

compound: S=c1[nH]c2ccccc2[nH]1
labelClass: class 0

----------
molecular target: human Peroxisome Proliferator-activated Receptor delta (PPARd), PPARD (gene 5467); assay: ATG_PPARd_TRANS: Attagene TRANS-FACTORIAL HepG2 Assay for human Peroxisome Proliferator-activated Receptor delta (PPARd) (AID 2283002)
Results filed as inconclusive are left out. Active and inactive are the calls of the source. Rule for the calls: active = hit-call score of the fitted dose curve at least 0.9, where 1 is the maximum; inconclusive = response in the unintended direction; inactive = score below 0.9.
valueType: outcome

inputSmiles: COCC(=O)N(c1c(C)cccc1C)N1CCOC1=O
testTarget: human Peroxisome Proliferator-activated Receptor delta (PPARd), PPARD (gene 5467)
result: inactive
--
inputSmiles: CN(C)C(=O)C(c1ccccc1)c1ccccc1
testTarget: human Peroxisome Proliferator-activated Receptor delta (PPARd), PPARD (gene 5467)
result: inactive
--
inputSmiles: c1ccc(Nc2ccc3ccccc3c2)cc1
testTarget: human Peroxisome Proliferator-activated Receptor delta (PPARd), PPARD (gene 5467)
result: inactive
--
inputSmiles: CC(=O)C=Cc1ccccc1
testTarget: human Peroxisome Proliferator-activated Receptor delta (PPARd), PPARD (gene 5467)
result: inactive
--
inputSmiles: O=c1c2ccccc2c(=O)c2c1cc(Cl)c1[nH]c3c([nH]c12)c(Cl)cc1c(=O)c2ccccc2c(=O)c13
testTarget: human Peroxisome Proliferator-activated Receptor delta (PPARd), PPARD (gene 5467)
result: inactive
--
inputSmiles: SCc1ccco1
testTarget: human Peroxisome Proliferator-activated Receptor delta (PPARd), PPARD (gene 5467)
result: inactive
--
inputSmiles: COc1ccc(CO)cc1
testTarget: human Peroxisome Proliferator-activated Receptor delta (PPARd), PPARD (gene 5467)
result: inactive

----------
molecular target: human Tyrosine Protein Kinase Receptor Tie-2 (Tie2), TEK (gene 7010); assay: NVS_ENZ_hTie2: NovaScreen (NVS) Enzymatic Assay for human Tyrosine Protein Kinase Receptor Tie-2 (Tie2) (AID 2283225)
Inconclusive results are not listed. Activity calls are given as the source filed them. How the source made its calls: active means hit-call score of the fitted dose curve at least 0.9, where 1 is the maximum; inconclusive means response in the unintended direction; inactive means score below 0.9.
Outcomes: Y for active, N for inactive

molecule: CCc1c(C(=O)NN2CCCCC2)nn(-c2ccc(Cl)cc2Cl)c1-c1ccc(Br)cc1
labelClass: N
//
molecule: CCC(O)=C1C(=O)CC(C(=O)O)CC1=O (stereo unspecified)
labelClass: N
//
molecule: O=C(O)C1(C(=O)Nc2ccc(Cl)cc2Cl)CC1
labelClass: N
//
molecule: CCCCCCCCCCCCc1ccccc1S(=O)(=O)O
labelClass: Y
//
molecule: Cc1nc(-c2ccc3c(c2)CCN(CCC2CCC(NC(=O)/C=C/c4ccc(F)cc4)CC2)CC3)no1 (stereo unspecified)
labelClass: Y
//
molecule: COc1ccc2sc(C(=O)Nc3nnn[nH]3)c(OC(C)C)c2c1
labelClass: N

----------
target: Cellular tumor antigen p53 (Homo sapiens); test: TOX21_p53_BLA_p3_ratio: Tox21 HCT-116 p53 Agonism Beta-lactamase Assay, Ratio, Phase 3 (AID 2283596)
Results filed as inconclusive are left out. Active and inactive are the calls of the source. How the source made its calls: active means hit-call score of the fitted dose curve at least 0.9, where 1 is the maximum; inconclusive means response in the unintended direction; inactive means score below 0.9.
Outcomes: t for active, f for inactive

molecule: C=CCN(C1=NCCN1)c1c(Cl)cccc1Cl
testTarget: Cellular tumor antigen p53 (Homo sapiens)
labelClass: f

molecule: CC=CCC#N
testTarget: Cellular tumor antigen p53 (Homo sapiens)
labelClass: f

molecule: C[C@H](N)[C@H](O)c1ccc(O)c(O)c1
testTarget: Cellular tumor antigen p53 (Homo sapiens)
labelClass: f

molecule: CCCCCc1cc(O)c2c(c1)OC(C)(C)c1ccc(C)cc1-2
testTarget: Cellular tumor antigen p53 (Homo sapiens)
labelClass: t

molecule: Cc1nnc2n1-c1sc(Br)cc1C(c1ccccc1Cl)=NC2
testTarget: Cellular tumor antigen p53 (Homo sapiens)
labelClass: f

molecule: Cn1c(CCCC(=O)O)nc2cc(N(CCCl)CCCl)ccc21
testTarget: Cellular tumor antigen p53 (Homo sapiens)
labelClass: t

molecule: N#CCCCCC#N
testTarget: Cellular tumor antigen p53 (Homo sapiens)
labelClass: f

molecule: CCC(C)(S(=O)(=O)CC)S(=O)(=O)CC
testTarget: Cellular tumor antigen p53 (Homo sapiens)
labelClass: f

molecule: CC[C@]1(O)CC[C@H]2[C@@H]3CCC4=CCCC[C@@H]4[C@H]3CC[C@@]21C
testTarget: Cellular tumor antigen p53 (Homo sapiens)
labelClass: t

molecule: O=[N+]([O-])c1ccc(CBr)cc1
testTarget: Cellular tumor antigen p53 (Homo sapiens)
labelClass: t

molecule: CCNCC(O)c1cccc(O)c1 (configuration not stated)
testTarget: Cellular tumor antigen p53 (Homo sapiens)
labelClass: f

molecule: O=C(Cl)C(Cl)(Cl)Cl
testTarget: Cellular tumor antigen p53 (Homo sapiens)
labelClass: f

molecule: C[C@@H](CO)NC(=O)[C@@H]1C=C2c3cccc4[nH]cc(c34)C[C@H]2N(C)C1
testTarget: Cellular tumor antigen p53 (Homo sapiens)
labelClass: f

molecule: CC(C)[C@@H](C(=O)O[C@@H](C#N)c1cccc(Oc2ccccc2)c1)c1ccc(Cl)cc1
testTarget: Cellular tumor antigen p53 (Homo sapiens)
labelClass: f

molecule: C=CC=O
testTarget: Cellular tumor antigen p53 (Homo sapiens)
labelClass: f

molecule: ClC(Br)Br
testTarget: Cellular tumor antigen p53 (Homo sapiens)
labelClass: f

molecule: O=C(O)COc1ccccc1
testTarget: Cellular tumor antigen p53 (Homo sapiens)
labelClass: f

molecule: C=CCC1(C(C)CCC)C(=O)N=C(S)NC1=O (configuration not stated)
testTarget: Cellular tumor antigen p53 (Homo sapiens)
labelClass: f

molecule: CC(C)(O)C#N
testTarget: Cellular tumor antigen p53 (Homo sapiens)
labelClass: f

molecule: N#CCc1ccccc1
testTarget: Cellular tumor antigen p53 (Homo sapiens)
labelClass: f

molecule: [CH3][Sn]([Cl])([Cl])[Cl]
testTarget: Cellular tumor antigen p53 (Homo sapiens)
labelClass: f

molecule: O=C(O)C(Br)CBr (configuration not stated)
testTarget: Cellular tumor antigen p53 (Homo sapiens)
labelClass: f

molecule: S=C=Nc1ccccc1
testTarget: Cellular tumor antigen p53 (Homo sapiens)
labelClass: f

molecule: COc1ccc2c3c1O[C@H]1[C@H](O)CC[C@H]4[C@@H](C2)N(C)CC[C@@]341
testTarget: Cellular tumor antigen p53 (Homo sapiens)
labelClass: f

molecule: CCCCCCC(=O)CCCCCC/C=C/C[C@@H](O)[C@H](O)[C@@](N)(CO)C(=O)O
testTarget: Cellular tumor antigen p53 (Homo sapiens)
labelClass: f

molecule: O=C(N/N=C/c1ccc([N+](=O)[O-])o1)c1cc([N+](=O)[O-])cc([N+](=O)[O-])c1O
testTarget: Cellular tumor antigen p53 (Homo sapiens)
labelClass: f

molecule: CC(C)c1ccc(NC(=O)N(C)C)cc1
testTarget: Cellular tumor antigen p53 (Homo sapiens)
labelClass: f

molecule: CCCCCCI
testTarget: Cellular tumor antigen p53 (Homo sapiens)
labelClass: f

molecule: CC(C)CON=O
testTarget: Cellular tumor antigen p53 (Homo sapiens)
labelClass: f

molecule: CCCCCCCCn1cc[n+](C)c1
testTarget: Cellular tumor antigen p53 (Homo sapiens)
labelClass: t

molecule: CC1(C)[C@H](C=C(Cl)Cl)[C@@H]1C(=O)O[C@@H](C#N)c1cccc(Oc2ccccc2)c1
testTarget: Cellular tumor antigen p53 (Homo sapiens)
labelClass: f

molecule: C=C[C@H]1CN2CC[C@H]1C[C@@H]2[C@@H](O)c1ccnc2ccccc12
testTarget: Cellular tumor antigen p53 (Homo sapiens)
labelClass: f

molecule: COc1ccc(C=O)cc1O
testTarget: Cellular tumor antigen p53 (Homo sapiens)
labelClass: f

molecule: N[C@@H](Cc1ccc(Oc2cc(I)c(O)c(I)c2)c(I)c1)C(=O)O
testTarget: Cellular tumor antigen p53 (Homo sapiens)
labelClass: f

molecule: CC[N+]1(C)CCCC(OC(=O)C(O)(c2ccccc2)c2ccccc2)C1 (configuration not stated)
testTarget: Cellular tumor antigen p53 (Homo sapiens)
labelClass: f

molecule: CCCC[N+](CCCC)(CCCC)CCCC
testTarget: Cellular tumor antigen p53 (Homo sapiens)
labelClass: f

molecule: Oc1cccc(Cl)c1Cl
testTarget: Cellular tumor antigen p53 (Homo sapiens)
labelClass: f

molecule: Oc1ccc2c3c1O[C@H]1[C@@H](O)CC[C@@]4(O)[C@@H](C2)N(CC2CCC2)CC[C@]314
testTarget: Cellular tumor antigen p53 (Homo sapiens)
labelClass: f

molecule: CC[C@H](OC(C)=O)C(C[C@H](C)NC)(c1ccccc1)c1ccccc1
testTarget: Cellular tumor antigen p53 (Homo sapiens)
labelClass: f

molecule: CCC(=O)O[C@]1(c2ccccc2)CCN(C)C[C@H]1C
testTarget: Cellular tumor antigen p53 (Homo sapiens)
labelClass: f

molecule: CN1[C@@H]2CC[C@H]1CC(O)C2 (some centres not stated)
testTarget: Cellular tumor antigen p53 (Homo sapiens)
labelClass: f

molecule: CN1C[C@@H](NS(=O)(=O)N(C)C)C[C@@H]2c3cccc4c3c(cn4C)C[C@H]21
testTarget: Cellular tumor antigen p53 (Homo sapiens)
labelClass: f

molecule: N#CC1(N=NC2(C#N)CCCCC2)CCCCC1
testTarget: Cellular tumor antigen p53 (Homo sapiens)
labelClass: f

molecule: CC(C)[C@@]1(NC(=O)[C@@H]2C[C@@H]3c4cccc5[nH]cc(c45)C[C@H]3N(C)C2)O[C@@]2(O)[C@@H]3CCCN3C(=O)[C@H](Cc3ccccc3)N2C1=O
testTarget: Cellular tumor antigen p53 (Homo sapiens)
labelClass: f

molecule: CCCCC#N
testTarget: Cellular tumor antigen p53 (Homo sapiens)
labelClass: f

molecule: C[C@]12CCC(=O)C[C@@H]1CC[C@@H]1[C@@H]2CC[C@@]2(C)[C@H]1CC[C@]2(C)O
testTarget: Cellular tumor antigen p53 (Homo sapiens)
labelClass: f

molecule: CC1CCC(C(C)C)C(OC(=O)c2ccccc2N)C1 (configuration not stated)
testTarget: Cellular tumor antigen p53 (Homo sapiens)
labelClass: f

molecule: Nc1n[nH]c(N)n1
testTarget: Cellular tumor antigen p53 (Homo sapiens)
labelClass: f

molecule: NC(=O)CN1CCCC1=O
testTarget: Cellular tumor antigen p53 (Homo sapiens)
labelClass: f

molecule: COc1cccc([C@@]2(O)CCCC[C@@H]2CN(C)C)c1
testTarget: Cellular tumor antigen p53 (Homo sapiens)
labelClass: f

molecule: CCOC(=O)C(Cl)C(C)=O (configuration not stated)
testTarget: Cellular tumor antigen p53 (Homo sapiens)
labelClass: f

molecule: Nc1cc(Cl)ccc1O
testTarget: Cellular tumor antigen p53 (Homo sapiens)
labelClass: t
